# Target Under Test: Aldehyde dehydrogenase 1A1 (Homo sapiens) (UniProt P00352)
# Measurement Description: qHTS for Inhibitors of the Aldehyde Dehydrogenase Family (ALDH1A1) Confirmatory screens (AID 2061316); further: nearly all actives have a fitted effect of over 65% in size
# Applied Conditions: ALDH inhibition qHTS; series mostly up to 47.3 µM
Results filed as inconclusive are left out. Active and inactive are the calls of the source. The call rests on the fitted dose curve; in most records, active means well fitted inhibition curve with a large enough effect; inconclusive means small, poorly fitted or top-dose-only effect; inactive means no such curve, though single readings can be large or run the other way.
Classes used: active, inactive

Cc1ccc(CN(C)c2ncnc3ccc(-c4ccc(C#N)n4C)cc23)o1 = active
O=C(Nc1nc(-c2ccccc2)cs1)c1ccncc1NS(=O)(=O)c1ccc2ccccc2c1 = active
COc1ccc(C2=Nn3c(nnc3-c3ccc(OC)cc3)SC2)cc1 = inactive
Cc1cc(-c2nnc3n2CCCCC3)c(C)n1-c1ccc(Cl)c(Cl)c1 = active
O=C(CSc1nc2ncccc2o1)Nc1ccc(Cl)cc1F = inactive
O=S1(=O)N=C(Sc2cccc3cccnc23)c2ccccc21 = active
COc1ccc(CNC(=O)c2cc3c(=O)n(Cc4ccc(OC)cc4)ccc3nc2C)cc1 = inactive
O=C(O)c1ccc(O)c2ncc(NC3CCNC3)cc12 (stereo unspecified) = inactive
COc1cccc(-c2cccc(C(=O)N3CCN(C(=O)c4ccc(C)cc4)CC3)c2)c1 = active
Cc1c(C(=O)OC[C@H]2CCCO2)[nH]c2c1C(=O)CC(c1ccco1)C2 (stereo partly specified) = active
COCCOc1cnc2ccn([C@H](C)c3nnc4c(F)cc(-c5cnn(C)c5)cn34)c(=O)c2c1 = active
Cc1cccc(NC(=O)N2CC(Oc3ccc(-c4nc(C)no4)cc3)C2)c1 = inactive
O=C(c1ccccc1O)N(Cc1ccco1)Cc1cccs1 = active
O=C1c2ccccc2C(=O)N1c1cccc(=O)[nH]1 = inactive
Oc1ccc(Nc2ccccc2F)c2cccnc12 = inactive
Cc1cc(C)nc(NCc2ccc(O)c3ncccc23)c1 = active
COc1ccc2ccccc2c1CN(C)CC(=O)Nc1ccc(N2CCOCC2)cc1 = active
CN(C)c1ccc(-c2csc(N3CCC(C(N)=O)CC3)n2)cc1 = active
O=C1Nc2ccccc2/C1=C/c1cc(Cl)c(O)c(Cl)c1 = active
COc1ccc(-n2cc(C(=O)Nc3cc(F)ccc3F)c3ccccc3c2=O)cc1 = active
C=C1[C@@H](OC(C)=O)CC[C@@]2(C)[C@@H](OC(C)=O)[C@H](OC(C)=O)C3=C(C)C[C@H](OC(=O)C(C)CC)[C@@H]([C@@H](OC(C)=O)[C@H]12)C3(C)C (stereo partly specified) = inactive

Reference source: PubChem BioAssay (NCATS)
